Value source: ChEMBL document CHEMBL1121491

# System: Rattus norvegicus
# procedure.summary: Hypotensive activity by intravenous administration to rats
# Format: functional
API: label(entry) gives 1 if the entry's Log 1/ED50 is strictly smaller than 0.1; on equality or larger values it gives 0.

Q: Determine if Cc1cccc(C)c1N=C1NCCN1 shows Log 1/ED50 strictly lower than 0.1.
A: 0

Q: Now give it for c1ccc(NC2=NCCN2)cc1 too.
A: 1

Q: Now give it for Clc1ccccc1N=C1NCCN1 too.
A: 0

Q: Now give it for c1cc2c(c(NC3=NCCN3)c1)CCCC2 [TRAMAZOLINE] too.
A: 0

Q: Now give it for Fc1cccc(F)c1N=C1NCCN1 too.
A: 1

Q: Now give it for Clc1cccc(Cl)c1NC1=NCCN1 [CLONIDINE] too.
A: 0

Q: Now give it for Cc1ccccc1N=C1NCCN1 too.
A: 1
